Tested on: MCF10A
Test: 5+ nucleoli phenotype percent effect (relative to siNT 0% and siKIF11 100%); higher = more cells with five or more nucleoli
Details: 20 nM; 72 h
Consider the following sequences; for each one, report its 5+ nucleoli phenotype percent effect.
Respond with the bare value in %.

5+ nucleoli phenotype percent effect on MCF10A for UGAGUAUUACAUGGCCAAUCUC [hsa-miR-496] is -15.6

5+ nucleoli phenotype percent effect on MCF10A for AGACCCUGCAGCCUUCCCACC [hsa-miR-4725-5p] is -16

5+ nucleoli phenotype percent effect on MCF10A for CAGGGCUGGCAGUGACAUGGGU [hsa-miR-4446-3p] is -5.74

5+ nucleoli phenotype percent effect on MCF10A for GCGGUGGGGCCGGAGGGGCGU [hsa-miR-6786-5p] is 31.9

5+ nucleoli phenotype percent effect on MCF10A for CGUGUUCACAGCGGACCUUGAU [hsa-miR-124-5p] is -28.6

5+ nucleoli phenotype percent effect on MCF10A for AAGUGAUCUAAAGGCCUACAU [hsa-miR-1245a] is -34

5+ nucleoli phenotype percent effect on MCF10A for CAGGUAGAUAUUUGAUAGGCAU [hsa-miR-3927-3p] is 29.3

5+ nucleoli phenotype percent effect on MCF10A for CUAUACGGCCUCCUAGCUUUCC [hsa-let-7e-3p] is 7.57

5+ nucleoli phenotype percent effect on MCF10A for CGCGGGUCGGGGUCUGCAGG [hsa-miR-3621] is -3.13

5+ nucleoli phenotype percent effect on MCF10A for AAUGUUUUUUCCUGUUUCC [hsa-miR-4307] is 3.12

5+ nucleoli phenotype percent effect on MCF10A for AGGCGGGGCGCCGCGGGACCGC [hsa-miR-663a] is 2.91

5+ nucleoli phenotype percent effect on MCF10A for CUGGUACAGGCCUGGGGGACAG [hsa-miR-150-3p] is 1.02

5+ nucleoli phenotype percent effect on MCF10A for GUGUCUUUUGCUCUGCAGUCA [hsa-miR-511] is -3.71

5+ nucleoli phenotype percent effect on MCF10A for CAACACCAGUCGAUGGGCUGU [hsa-miR-21-3p] is -31.2

5+ nucleoli phenotype percent effect on MCF10A for UGGAAUGUAAAGAAGUAUGUAU [hsa-miR-1] is -15.8

5+ nucleoli phenotype percent effect on MCF10A for GACACAUGACCAUAAAUGCUAA [hsa-miR-4643] is 36.8

5+ nucleoli phenotype percent effect on MCF10A for UGGUAGACUAUGGAACGUAGG [hsa-miR-379-5p] is -21.8

5+ nucleoli phenotype percent effect on MCF10A for UUUCCUCAUAUUCAUUCAGGA [hsa-miR-670-3p] is -7.45

5+ nucleoli phenotype percent effect on MCF10A for AUGGAGCUGGAACCAGAUCAGGC [hsa-miR-6874-5p] is -35.8

5+ nucleoli phenotype percent effect on MCF10A for CCAAAUCUUGAUCAGAAGCCU [hsa-miR-4762-5p] is 26.6

5+ nucleoli phenotype percent effect on MCF10A for UAGCCUUCAGAUCUUGGUGUUUU [hsa-miR-3614-3p] is -23.5

5+ nucleoli phenotype percent effect on MCF10A for ACACACUUACCCGUAGAGAUUCUA [hsa-miR-216b-3p] is 35.7

5+ nucleoli phenotype percent effect on MCF10A for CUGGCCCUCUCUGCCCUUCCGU [hsa-miR-328] is 47.4

5+ nucleoli phenotype percent effect on MCF10A for AAUCGGACCCAUUUAAACCGGAG [hsa-miR-5188] is 10.2

5+ nucleoli phenotype percent effect on MCF10A for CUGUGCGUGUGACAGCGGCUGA [hsa-miR-210] is -13.9

5+ nucleoli phenotype percent effect on MCF10A for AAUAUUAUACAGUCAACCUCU [hsa-miR-656] is 6.28

5+ nucleoli phenotype percent effect on MCF10A for UCUAGAGGAAGCACUUUCUGUUU [hsa-miR-520g-5p] is 34.9

5+ nucleoli phenotype percent effect on MCF10A for UGUGAUAUCAUGGUUCCUGGGA [hsa-miR-3689a-5p] is -5.22

5+ nucleoli phenotype percent effect on MCF10A for CCGGCAUGUCCAGGGCA [hsa-miR-4304] is 3.17

5+ nucleoli phenotype percent effect on MCF10A for CAGAACAGGAGCAUAGAAAGGC [hsa-miR-4773] is 22.9

5+ nucleoli phenotype percent effect on MCF10A for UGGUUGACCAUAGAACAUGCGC [hsa-miR-380-5p] is -0.352

5+ nucleoli phenotype percent effect on MCF10A for CAAAAACCAUAGUUACUUUUGC [hsa-miR-548bb-3p] is 40.6

* * *

Tested on: MCF10A
Assay: 5+ nucleoli phenotype percent effect (relative to siNT 0% and siKIF11 100%); higher = more cells with five or more nucleoli
Conditions: 20 nM; 72 h
assayReadout: 5+ nucleoli phenotype percent effect (%)
Respond with the bare value in %.

5+ nucleoli phenotype percent effect on MCF10A for AUAGCAGCAUGAACCUGUCUCA [hsa-miR-4524a-5p] is -12.6

5+ nucleoli phenotype percent effect on MCF10A for GGUGAGGCUAGCUGGUG [hsa-miR-4316] is -8.12

5+ nucleoli phenotype percent effect on MCF10A for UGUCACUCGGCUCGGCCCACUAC [hsa-miR-668] is -8.26

5+ nucleoli phenotype percent effect on MCF10A for GUAAGGGACCGGAGAGUAGGA [hsa-miR-6892-5p] is -29

5+ nucleoli phenotype percent effect on MCF10A for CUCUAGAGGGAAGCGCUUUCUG [hsa-miR-522-5p] is 0.209

5+ nucleoli phenotype percent effect on MCF10A for AAAGGCAUAAAACCAAGACA [hsa-miR-3910] is -39.2

5+ nucleoli phenotype percent effect on MCF10A for UGCAUGACCCUUCCCUCCCCAC [hsa-miR-6797-3p] is -8.08

5+ nucleoli phenotype percent effect on MCF10A for UUAGAGGCUGGAAUAGAGAUUCU [hsa-miR-6866-5p] is -0.659

5+ nucleoli phenotype percent effect on MCF10A for CAGAGGGAAUACAGAGGGCAAU [hsa-miR-6873-5p] is 7.98

5+ nucleoli phenotype percent effect on MCF10A for UAUCUGCUGGGCUUUCUGGUGUU [hsa-miR-4686] is -43.3

5+ nucleoli phenotype percent effect on MCF10A for UCAUAUUGCUUCUUUCU [hsa-miR-1279] is 35.8

5+ nucleoli phenotype percent effect on MCF10A for AGGGCUGGACUCAGCGGCGGAGCU [hsa-miR-5001-5p] is -6.45

5+ nucleoli phenotype percent effect on MCF10A for AUCCCCAGAUACAAUGGACAA [hsa-miR-2355-5p] is -14.8

5+ nucleoli phenotype percent effect on MCF10A for UAGAGUCUGGCUGAUAUGGUUU [hsa-miR-5007-5p] is -8

5+ nucleoli phenotype percent effect on MCF10A for AGGCUCUAACUGGCUUUCCCUGCA [hsa-miR-6822-3p] is -24.9

5+ nucleoli phenotype percent effect on MCF10A for UAUCAUGGAGUUGGUAAAGCAC [hsa-miR-2681-3p] is 14.2

5+ nucleoli phenotype percent effect on MCF10A for GGAUGGAGGAGGGGUCU [hsa-miR-4534] is 31

5+ nucleoli phenotype percent effect on MCF10A for AGCGGGGAGGAAGUGGGCGCUGCUU [hsa-miR-4706] is -0.458

5+ nucleoli phenotype percent effect on MCF10A for AGCCAAGUGGAAGUUACUUUA [hsa-miR-4480] is -37.2

* * *

Tested on: MCF10A
Assay: 5+ nucleoli phenotype percent effect (relative to siNT 0% and siKIF11 100%); higher = more cells with five or more nucleoli
Details: 20 nM; 72 h
assayReadout: 5+ nucleoli phenotype percent effect (%)
Respond with the bare value in %.

Sample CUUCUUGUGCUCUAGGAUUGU [hsa-miR-578] ; 5+ nucleoli phenotype percent effect observed: -13.1

Sample UUCUCAAGGAGGUGUCGUUUAU [hsa-miR-513c-5p] ; 5+ nucleoli phenotype percent effect observed: 3.99

Sample UUUUGCGAUGUGUUCCUAAUAU [hsa-miR-450a-5p] ; 5+ nucleoli phenotype percent effect observed: 13.7

Sample CAGUUGGGUCUAGGGGUCAGGA [hsa-miR-4259] ; 5+ nucleoli phenotype percent effect observed: -30.7

Sample UAGGAGGGAAUAGUAAAAGCAG [hsa-miR-4779] ; 5+ nucleoli phenotype percent effect observed: -25.8

Sample AGGACCUUCCCUGAACCAAGGA [hsa-miR-659-5p] ; 5+ nucleoli phenotype percent effect observed: -33.7

Sample AGAGCUGAGACUAGAAAGCCCA [hsa-miR-3160-3p] ; 5+ nucleoli phenotype percent effect observed: -5.31

Sample CGGCCCGGGCUGCUGCUGUUCCU [hsa-miR-1538] ; 5+ nucleoli phenotype percent effect observed: 45

Sample CUCUCUACUGACUUGCAACAUA [hsa-miR-4684-5p] ; 5+ nucleoli phenotype percent effect observed: 33.1

Sample AGAACUCUUGCAGUCUUAGAUGU [hsa-miR-4680-5p] ; 5+ nucleoli phenotype percent effect observed: -12.8

Sample UCAGUAAAUGUUUAUUAGAUGA [hsa-miR-545-5p] ; 5+ nucleoli phenotype percent effect observed: 38.8

Sample UGUUUGUUGUAAGGAUCGUUGU [hsa-miR-8068] ; 5+ nucleoli phenotype percent effect observed: -15.7

Sample AAAGCGCUUCCCUUCAGAGUG [hsa-miR-518e-3p] ; 5+ nucleoli phenotype percent effect observed: -27.4

Sample UCCUCAUCACACUGCACCUUAG [hsa-miR-6072] ; 5+ nucleoli phenotype percent effect observed: -18.4

Sample AUACUGUGAAUUUCACUGUCACA [hsa-miR-4693-5p] ; 5+ nucleoli phenotype percent effect observed: -20.3

Sample CACCAGGCAUUGUGGUCUCC [hsa-miR-1911-3p] ; 5+ nucleoli phenotype percent effect observed: -9.8

Sample GGGUGAGGGCAGGUGGUU [hsa-miR-4710] ; 5+ nucleoli phenotype percent effect observed: 22.2

Sample UCGUAUCAGAGAUUCCAGACAC [hsa-miR-6506-3p] ; 5+ nucleoli phenotype percent effect observed: -11.2

Sample UUCCUGGGCUUCUCCUCUGUAG [hsa-miR-6783-3p] ; 5+ nucleoli phenotype percent effect observed: 7.93

Sample AACAACAAAAUCACUAGUCUUCCA [hsa-miR-3529-3p] ; 5+ nucleoli phenotype percent effect observed: 0.722

Sample AAUCCCAAUGCUAGACCCGGUG [hsa-miR-4733-5p] ; 5+ nucleoli phenotype percent effect observed: 2.55

Sample UAGUGGUCCUAAACAUUUCACA [hsa-miR-203b-5p] ; 5+ nucleoli phenotype percent effect observed: -42.9
